Biological target: ATP-dependent translocase ABCB1 (Homo sapiens)
Assay: P-glycoprotein substrate transport blockade – cell-based (AID 377)
Conditions: MDR1-expressing cells, fluorescent substrate accumulation slope; concentration not given here
Results filed as inconclusive are left out. Calls of active or inactive are those of the source. No stated cut-off is given here; in the data, active means fluorescence slope change above about 50%; inconclusive means mostly about 31% to 49%; inactive means weaker than that.
Hi! Could you answer with just one of these? TRUE for active, FALSE for inactive

# example entries with known answers
| compound | classification |
| --- | --- |
| COc1cc(OC)c(C(=O)CCCN2CCCC2)c(OC)c1 | TRUE |
| CCN(CC)C(=O)N1CCN(C)CC1 | FALSE |
| Nc1ccc(S(=O)(=O)NC(=O)c2ccccc2)cc1 | FALSE |
| CCN(CC)CCNC(=O)c1cc(Br)c(N)cc1OC | FALSE |
| CCN(CC)CCOC(=O)C(c1ccccc1)C1CCCCC1 (configuration not stated) | TRUE |
| CC(=O)NO | FALSE |

Please look at the following compound next.
Q: Tell me the recorded outcome of this test for Clc1ccccc1C(c1ccccc1)(c1ccccc1)n1ccnc1 .
Result: TRUE

----------
Documented score across a set of compounds
Test: yeast 75Q aggregation reduction – 75Q-TubU reporter (AID 1593)
Settings: Yeast 75Q polyglutamine aggregation reporter
// keep it numeric: no unit symbol after the value

The following compounds have reported results that may help.
| compound | score |
| --- | --- |
| COC(=O)[C@H]1[C@H]2C[C@@H]3c4[nH]c5cc(OC)ccc5c4CCN3C[C@H]2C[C@@H](OC(=O)c2cc(OC)c(OC)c(OC)c2)[C@@H]1OC | 1.16 |
| CCCCOc1ccc(CC(=O)NO)cc1 | 1.21 |

Looking up O=C(OCC(O)CO)c1ccccc1Nc1ccnc2cc(Cl)ccc12 (stereo not drawn) , I found its score recorded as 1.22

Looking up Cc1ccc(C(=O)c2ccc(CC(=O)O)n2C)cc1 , I found its score recorded as 1.04

Looking up CO[C@@H]1[C@@H](OC(N)=O)[C@@H](O)[C@H](Oc2ccc3c(O)c(NC(=O)c4ccc(O)c(CC=C(C)C)c4)c(=O)oc3c2C)OC1(C)C , I found its score recorded as 1.59

Looking up COc1ccc(CCN2CCC(Nc3nc4ccccc4n3Cc3ccc(F)cc3)CC2)cc1 , I found its score recorded as 1.54

Looking up CC(C)NNC(=O)c1ccncc1 , I found its score recorded as 1.22

Looking up CCn1cc(C(=O)O)c(=O)c2cc3c(cc21)OCO3 , I found its score recorded as 1.16

Looking up Cc1nc2sccn2c(=O)c1CCN1CCC(=C(c2ccc(F)cc2)c2ccc(F)cc2)CC1 , I found its score recorded as 1.46

Looking up Cc1ccnc(NS(=O)(=O)c2ccc(N)cc2)n1 , I found its score recorded as 0.98

Looking up Cc1cc(-c2ccccc2)nnc1NCCN1CCOCC1 , I found its score recorded as 1.28

Looking up CCCCC1C(=O)N(c2ccccc2)N(c2ccc(O)cc2)C1=O (stereo not drawn) , I found its score recorded as 0.89

Looking up C1CCC(C(CC2CCCCN2)C2CCCCC2)CC1 (stereo not drawn) , I found its score recorded as 0.35

Looking up NC(=O)NC1NC(=O)NC1=O (stereo not drawn) , I found its score recorded as 1.2

Looking up CCN(CC)CCOC(=O)C(c1ccccc1)C1CCCCC1 (stereo not drawn) , I found its score recorded as 1.92

Looking up Cc1cccc(N(C)C(=S)Oc2ccc3ccccc3c2)c1 , I found its score recorded as -1.43

Looking up COC(=O)Nc1nc2ccc(Sc3ccccc3)cc2[nH]1 , I found its score recorded as 0.64

Looking up Oc1c(I)cc(I)c2cccnc12 , I found its score recorded as -0.2
